Where do the numbers come from? From the supplement of paper PMC5908809.

System: KHYG-1 (IL-2 2.5 ng/mL)
Test: drug sensitivity score (DSS) (DSS units); higher = more sensitive; extreme values may be limits of the assay
Settings: 72 h
I'd be grateful if you could share measured drug sensitivity score for these entries.
Give bare numbers.

Sample answers from the record:
Form: Entry = O=C(c1ccc(/C=C/c2n[nH]c3ccccc23)cc1)N1CCNCC1 [KW-2449] (max concentration tested 2500 nM) | System = KHYG-1 (IL-2 2.5 ng/mL) | drug sensitivity score = ____
3.4

Test system KHYG-1 (IL-2 2.5 ng/mL); read-out drug sensitivity score; what value for COc1ccc(C[C@H](NC(=O)[C@H](C)NC(=O)CN2CCOCC2)C(=O)N[C@@H](Cc2ccccc2)C(=O)C2(C)CO2)cc1 (stereo in doubt) [ONX-0914] (max concentration tested 10000 nM) ?
22.3

So what drug sensitivity score did O=C(c1ccc(F)c(F)c1Nc1ccc(I)cc1F)N1CC(O)([C@@H]2CCCCN2)C1 [Cobimetinib] (max concentration tested 1000 nM) get with KHYG-1 (IL-2 2.5 ng/mL)?
6.6

Recorded drug sensitivity score for NCC(=O)Nc1ccc(-n2nc(C(F)(F)F)cc2-c2ccc3c(ccc4ccccc43)c2)cc1 (max concentration tested 25000 nM) with KHYG-1 (IL-2 2.5 ng/mL), please?
11.9

Request: drug sensitivity score, test system KHYG-1 (IL-2 2.5 ng/mL), entry OC[C@H]1O[C@@H](n2cnc3c2N=CNC[C@H]3O)C[C@@H]1O [Pentostatin] (max concentration tested 10000 nM)
0

# batch: return drug sensitivity score for each of the 2 compounds below
1. C=CC(=O)Nc1cc2c(Nc3ccc(F)c(Cl)c3)ncnc2cc1OCCCN1CCOCC1 [Canertinib] (max concentration tested 10000 nM)
2. Nc1ncnc2c1nc(N)n2[C@@H]1O[C@H](CO)[C@@H](O)[C@H]1O [8-amino-adenosine] (max concentration tested 50000 nM)

1. 6.47
2. 21.4
